- measurement description: Aqueous solubility of compound at pH 7.4
- measurement setup: buffer
measurement label: solubility

solubility for Cc1cc(/C=C/C#N)cc(C)c1Nc1ccnc(Nc2ccc(C#N)cc2)n1 ?
< 1 µg/mL

* * *

Give selectivity ratio for every item shown.
- measurement description: Selectivity index, ratio of CC50 for human MT4 cells to EC50 for antiviral activity against HIV1 IIIB infected in MT4 cells
- Format: toxicity, cell-based
- measurement setup: read-out: Ratio CC50/EC50
Please give only the number in your answer, with no unit.

What value of measured selectivity ratio is listed for COC(=O)CCCn1cc(CN2CCC(Nc3nccc(Oc4c(C)cc(/C=C/C#N)cc4C)n3)CC2)nn1 ?
2680

Requested field: selectivity ratio. Item: Cc1cc(C#N)cc(C)c1Oc1ccnc(NC2CCN(Cc3cn(Cc4ccccc4C#N)nn3)CC2)n1
2020

Query: selectivity ratio; subject: CNC(=O)Cn1cc(CN2CCC(Nc3nc(Oc4c(C)cc(/C=C/C#N)cc4C)c4ccsc4n3)CC2)nn1
3990

Any idea what its selectivity ratio is? The compound is Cc1cc(C#N)cc(C)c1Oc1ccnc(NC2CCN(Cc3cn(CC(=O)Nc4ccc(S(C)(=O)=O)cc4)nn3)CC2)n1
2690

Consider the compound CCNC(=O)Cn1cc(CN2CCC(Nc3nc(Oc4c(C)cc(/C=C/C#N)cc4C)c4ccsc4n3)CC2)nn1 and give its measured selectivity ratio.
5010

For the compound Cc1cc(/C=C/C#N)cc(C)c1Oc1ccnc(NC2CCN(Cc3cn(Cc4ccc(B(O)O)cc4)nn3)CC2)n1 , what selectivity ratio is on record?
825

Look at this compound and give its reported selectivity ratio. Cc1cc(/C=C/C#N)cc(C)c1Oc1nc(NC2CCN(Cc3cn(CC(=O)NC4CC4)nn3)CC2)nc2c1COC2
22800

Look at this compound and give its reported selectivity ratio. Cc1cc(/C=C/C#N)cc(C)c1Oc1ccnc(NC2CCN(Cc3cn(CC(=O)N4CCOCC4)nn3)CC2)n1
13300

meta.source: ChEMBL document CHEMBL5614409
